Quick reference: Signal-to-noise ratio at 1000 pg/ml of the listed items.
# Measured On: Large subunit-rSCFV5 fusion protein
# Sequence (chain, as listed by the source): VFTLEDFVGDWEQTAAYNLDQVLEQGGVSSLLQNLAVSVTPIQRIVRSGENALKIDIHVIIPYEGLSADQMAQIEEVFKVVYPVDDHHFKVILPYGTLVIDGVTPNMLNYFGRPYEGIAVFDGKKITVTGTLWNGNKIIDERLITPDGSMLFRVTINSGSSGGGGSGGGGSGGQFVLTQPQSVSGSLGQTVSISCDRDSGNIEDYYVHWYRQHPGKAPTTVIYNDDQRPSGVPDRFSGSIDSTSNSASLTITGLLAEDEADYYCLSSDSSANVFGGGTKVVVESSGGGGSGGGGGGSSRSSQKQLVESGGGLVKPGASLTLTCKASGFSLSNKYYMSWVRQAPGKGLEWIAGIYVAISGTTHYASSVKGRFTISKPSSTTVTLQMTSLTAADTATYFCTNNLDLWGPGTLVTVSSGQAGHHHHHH
# Procedure Summary: cell-based or functional assay
Quantity Kind: Signal-to-noise ratio at 1000 pg/ml

Binder: VEGYRLFDRKS (peptide, part only; not given: rSCFV18 scFv part, part only) [rSCFV18-small subunit mutant fusion protein RC-218]
Measurement: 6.3

Binder: VEGYRLFDKKW (peptide, part only; not given: rSCFV18 scFv part, part only) [rSCFV18-small subunit mutant fusion protein RB239]
Measurement: 31.1

Binder: VDGYRLFEKVS (peptide, part only; not given: rSCFV18 scFv part, part only) [rSCFV18-small subunit mutant fusion protein RC-263]
Measurement: 5.8

Binder: VEGYRIFEKKW (peptide, part only; not given: rSCFV18 scFv part, part only) [rSCFV18-small subunit mutant fusion protein RC-286]
Measurement: 5.5
